Values compiled from ChEMBL document CHEMBL3352664.

test system: Plasmodium falciparum; test: Resistance index, ratio of IC50 for chloroquine-resistant Plasmodium falciparum K1 to IC50 for chloroquine-sensitive Plasmodium falciparum 3D7; type: functional
Endpoint name: Ratio IC50

{"columns": ["Smiles notation", "Tested on", "Comparison symbol", "Val"],
 "data": [
  ["C[C@H](CCCN1CCN(C)CC1)Nc1ccnc2cc(Cl)ccc12", "Plasmodium falciparum", "=", 15.2],
  ["C[C@@H](CCCN1CCN(C)CC1)Nc1ccnc2cc(Cl)ccc12", "Plasmodium falciparum", "=", 1.53],
  ["C[C@H](CCCN(C)C)Nc1ccnc2cc(Cl)ccc12", "Plasmodium falciparum", "=", 33.74],
  ["CCN(C)CCC[C@H](C)Nc1ccnc2cc(Cl)ccc12", "Plasmodium falciparum", "=", 20.85],
  ["C[C@@H](CCCN1CCOCC1)Nc1ccnc2cc(Cl)ccc12", "Plasmodium falciparum", "=", 4.05],
  ["C[C@H](CCCN1CCCCC1)Nc1ccnc2cc(Cl)ccc12", "Plasmodium falciparum", "=", 10.13],
  ["C[C@@H](CCCN1CCCCC1)Nc1ccnc2cc(Cl)ccc12", "Plasmodium falciparum", "=", 8.09],
  ["C[C@@H](CCCN(C)C)Nc1ccnc2cc(Cl)ccc12", "Plasmodium falciparum", "=", 20.88],
  ["C[C@H](CCCN1CCOCC1)Nc1ccnc2cc(Cl)ccc12", "Plasmodium falciparum", "=", 3.76],
  ["C[C@H](CCCNC(C)(C)C)Nc1ccnc2cc(Cl)ccc12", "Plasmodium falciparum", ">", 335],
  ["C[C@H](CCCN1CCCC1)Nc1ccnc2cc(Cl)ccc12", "Plasmodium falciparum", "=", 12.23],
  ["C[C@@H](CCCNC(C)(C)C)Nc1ccnc2cc(Cl)ccc12", "Plasmodium falciparum", ">", 47.43],
  ["CCCCCCCCN(CCCCCCCC)CCC[C@@H](C)Nc1ccnc2cc(Cl)ccc12", "Plasmodium falciparum", "=", 1.6],
  ["CCCCCCCCN(CCCCCCCC)CCC[C@H](C)Nc1ccnc2cc(Cl)ccc12", "Plasmodium falciparum", "=", 0.084],
  ["C[C@@H](CCCN1CCCC1)Nc1ccnc2cc(Cl)ccc12", "Plasmodium falciparum", "=", 3.83],
  ["CCN(C)CCC[C@@H](C)Nc1ccnc2cc(Cl)ccc12", "Plasmodium falciparum", "=", 36.92]
]}
